# reported self-aminoacylation; entries follow
- Test system: biotinyl-Ile-oxazolone
- RUN_DESCRIPTION: self-aminoacylation, catalytic enhancement (BIO) (fold over background); higher = more active; k-Seq, kA / k0A0; sequences stand for … in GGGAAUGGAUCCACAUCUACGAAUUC…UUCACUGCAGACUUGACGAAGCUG
Variants at the floor of the assay were thinned out.
Lab note: record the figure alone, no unit after it.

Answered cases to consult:
{"SEQUENCE_CODE": "ACUCAUCUAGGUCAUCGGGUG [Fam2.2 aminoacylation ribozyme variant]", "ATTRIBUTE_MEASURED": "self-aminoacylation", "MEASURED_VALUE": 5.55}
{"SEQUENCE_CODE": "AAGUUUGUUAAUAAUCGCAAG [Fam3.1 aminoacylation ribozyme variant]", "ATTRIBUTE_MEASURED": "self-aminoacylation", "MEASURED_VALUE": 0.928}
{"SEQUENCE_CODE": "AUUACCCUGGUCAUCGAGUCU [Fam2.1 aminoacylation ribozyme variant]", "ATTRIBUTE_MEASURED": "self-aminoacylation", "MEASURED_VALUE": 0.697}
{"SEQUENCE_CODE": "AUUCACGUAGGUCAUCGGGUU [Fam2.2 aminoacylation ribozyme variant]", "ATTRIBUTE_MEASURED": "self-aminoacylation", "MEASURED_VALUE": 2.03}
{"SEQUENCE_CODE": "AUACACCUAGGUCAUCGCGUG [Fam2.2 aminoacylation ribozyme variant]", "ATTRIBUTE_MEASURED": "self-aminoacylation", "MEASURED_VALUE": 4.68}
{"SEQUENCE_CODE": "AUUACCCCGAUCAUCGAGUGA [Fam2.1 aminoacylation ribozyme variant]", "ATTRIBUTE_MEASURED": "self-aminoacylation", "MEASURED_VALUE": 3.39}

get_value(item= AUUACCCUGGUGGUCGAGUGA [Fam2.1 aminoacylation ribozyme variant] , readout=self-aminoacylation) returns 1.47

get_value(item= AUUGACCUAGGUCGUCGGGUG [Fam2.2 aminoacylation ribozyme variant] , readout=self-aminoacylation) returns 1.78

get_value(item= AUUACCCUGGGCAUCGAAUGA [Fam2.1 aminoacylation ribozyme variant] , readout=self-aminoacylation) returns 0.945

get_value(item= AUUAUCCUUGUCAUCGAGUGA [Fam2.1 aminoacylation ribozyme variant] , readout=self-aminoacylation) returns 3.49

get_value(item= AAGUUUGCUAAUCGUCGCUAG [Fam3.1 aminoacylation ribozyme variant] , readout=self-aminoacylation) returns 0.976

get_value(item= AUUACCCUGGACAUCGAGGGA [Fam2.1 aminoacylation ribozyme variant] , readout=self-aminoacylation) returns 1.53

Source listed as the supplement of paper PMC9233669.
